Recorded values, source patent US20220289698A1.

# measurement_protocol: Stability in human serum
# Assay type: in vitro ADME
# experimental_setup: 37° C., HPLC MS
quantity_measured: Stability in human serum [% rest after 3 h incubation] (%)
Write the value in % as a bare number.

Please review the entries below; each comes with its answer.
// Stability in human serum [% rest after 3 h incubation] lookup, compound = C#C[C@@H](C)OC(=O)c1csc(-c2ccc(OCC)cc2)n1 , result: 90

// Stability in human serum [% rest after 3 h incubation] lookup, compound = COc1cc(C(=O)OC(C)C)nc(-c2ccc(OC(C)C)cc2)c1 , result: 100

// Stability in human serum [% rest after 3 h incubation] lookup, compound = CC#CCOC(=O)c1csc(-c2ccc(OCC)cc2)n1 , result: 75

---
// Stability in human serum [% rest after 3 h incubation] lookup, compound = CCOc1ccc(-c2nc(C(=O)OCc3cccs3)cs2)cc1 , result: 80

// Stability in human serum [% rest after 3 h incubation] lookup, compound = CCOc1ccc(-c2nc(C(=O)OCc3ccoc3)cs2)cc1 , result: 60

// Stability in human serum [% rest after 3 h incubation] lookup, compound = CCCc1ccc(-c2cc(OC)cc(C(=O)OC(C)C)n2)cc1 , result: 80

// Stability in human serum [% rest after 3 h incubation] lookup, compound = CCOC(=O)c1csc(-c2ccc(OCC)cc2)n1 , result: 25

// Stability in human serum [% rest after 3 h incubation] lookup, compound = CCCCCCc1ccc(-c2cccc(C(=O)OC(C)C)n2)cc1 , result: 80
